Entry source: paper PMC9482650

# targetSystem: MAGI2_6, Q86UL8
# Sequence (Q86UL8 1141-1229): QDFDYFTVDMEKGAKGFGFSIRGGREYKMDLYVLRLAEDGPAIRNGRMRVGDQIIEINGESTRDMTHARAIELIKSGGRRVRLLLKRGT
# assayDetails: holdup assay
# Parameters: key: below the threshold = too weak to quantify, mostly under pKd 3.1 to 4
# statedConditions: plain residues with an end cap or a label only (N-terminal biotin on a linker: ttds)
propertyLabel: pKd

DPLTPSRSQL [DGKK, Q5KSL6] : below the threshold
DPRNTQTSQI [ABRAXAS2, Q15018] : below the threshold
GGPKEEESPV [SLC16A1, P53985] : below the threshold
